Give measured CC100 for each item. Keep answers brief.
System: Vero
protocol details: Cytotoxicity against african green monkey Vero cells by EPTT method
Assay type: cell-based
condition context: chlorocebus sabaeus
Numbers only, in µg/mL.

# batch: return CC100 for each of the 4 molecules below
1. CC1(C)CCC[C@]2(C)[C@H]3CCc4cocc4[C@]3(C)CC[C@@H]12
2. CO[C@@H]1OC2OC(=O)[C@@H]3CC[C@@H]4[C@@]5(C)CCCC(C)(C)[C@@H]5CC[C@]14[C@H]23 (some centres not stated)
3. CC(=O)OC[C@@H]1[C@H]2CC[C@@H]3[C@@]4(C)CCCC(C)(C)[C@@H]4CC[C@@]13COC2=O
4. CC1(C)CCC[C@]2(C)[C@H]3CC[C@]4(O)C(=O)OC[C@H]4[C@]3(C)CC[C@@H]12

RESULT:
1: 120; 2: 120; 3: 28; 4: 56

# batch: return CC100 for each of the 2 molecules below
1. CC1(C)CCC[C@]2(C)[C@H]3CC[C@H]4C(=O)OC5O[C@@H](O)[C@]3(CC[C@@H]12)[C@H]54 (some centres not stated)
2. CC1(C)CCC[C@]2(C)[C@H]3CC=C4C(=O)OC[C@H]4[C@]3(C)CC[C@@H]12

RESULT:
[8, 40]

###

Give measured CC50 for each item. Keep answers brief.
System: HeLa
protocol details: Cytotoxicity against human HeLa cells after 48 hrs by MTT assay
Type: functional
One number for each entry, in µg/mL.

// solved cases for CC50 follow
{"columns": ["compound", "measurement target", "CC50 / µg/mL"],
 "data": [
  ["CO[C@H]1CC[C@]2(C)[C@H]3CCc4cocc4[C@]3(C)CC[C@H]2[C@@H]1C", "HeLa", 13.6],
  ["CC1(C)CCC[C@]2(C)[C@H]3CC[C@H]4C(=O)OC[C@H]4[C@]3(C=O)CC[C@@H]12", "HeLa", 14.2]
]}

# batch: return CC50 for each of the 3 compounds below
1. CC(=O)O[C@H]1OC(=O)[C@@H]2CC[C@@H]3[C@@]4(C)CCCC(C)(C)[C@@H]4CC[C@@]3(C=O)[C@H]12
2. CC[C@]1(O)C[C@H]2CN(CCc3c([nH]c4ccccc34)[C@@](C(=O)OC)(c3cc4c(cc3OC)N(C=O)[C@H]3[C@@](O)(C(=O)OC)[C@H](OC(C)=O)[C@]5(CC)C=CCN6CC[C@]43[C@@H]65)C2)C1
3. CC(=O)OC[C@@H]1[C@H]2CC[C@@H]3[C@@]4(C)CCCC(C)(C)[C@@H]4CC[C@@]13COC2=O

RESULT:
1: 6.27; 2: 0.05; 3: 16.5

# batch: return CC50 for each of the 2 compounds below
1. CC1(C)CCC[C@]2(C)[C@H]3CC[C@H]4C(=O)OC5O[C@@H](O)[C@]3(CC[C@@H]12)[C@H]54 (some centres not stated)
2. COC(=O)[C@@H]1CC[C@@H]2[C@@]3(C)CCCC(C)(C)[C@@H]3CC[C@]23C(O)OC[C@H]13 (some centres not stated)

RESULT:
1. 14.8
2. 37.6

###

Tested on: Vero
protocol details: Cytotoxicity against african green monkey Vero cells by EPTT method
Format: cell-based
condition context: chlorocebus sabaeus
Param label: returns true (1) when CC100 < 30 µg/mL, returns false (0) otherwise, including exact equality.

Would you please look over these solved cases?
{"columns": ["compound", "measurement target", "group"],
 "data": [
  ["CC(=O)O[C@H]1OC(=O)[C@@H]2CC[C@@H]3[C@@]4(C)CCCC(C)(C)[C@@H]4CC[C@@]3(C=O)[C@H]12", "Vero", "true (1)"],
  ["CC1(C)CCC[C@]2(C)[C@H]3CC[C@H]4C(=O)OC5OC[C@H]4[C@@]53CC[C@@H]12", "Vero", "false (0)"],
  ["CC1(C)CCC[C@]2(C)[C@H]3CC[C@H]4C(=O)OC[C@H]4[C@]3(C=O)CC[C@@H]12", "Vero", "true (1)"],
  ["CC1(C)C(=O)CC[C@]2(C)[C@H]3CCc4cocc4[C@]3(C)CC[C@@H]12", "Vero", "true (1)"],
  ["CO[C@H]1CC[C@]2(C)[C@H]3CCc4cocc4[C@]3(C)CC[C@H]2[C@@H]1C", "Vero", "true (1)"]
]}

QUERY: Please determine if CC(=O)O[C@@H]1OC2OC(=O)[C@@H]3CC[C@@H]4[C@@]5(C)CCCC(C)(C)[C@@H]5CC[C@]14[C@H]23 (some centres undefined) is below 30 µg/mL in terms of CC100.
RESULT: false (0)

QUERY: Please determine if "CC1(C)CCC[C@]2(C)[C@H]3CC[C@H]4C(=O)OC[C@]3(CC[C@@H]12)[C@@H]4CO" is below 30 µg/mL in terms of CC100.
RESULT: false (0)

QUERY: Please determine if "CC1(C)CCC[C@]2(C)[C@H]3CC[C@@]4(O)C(=O)OC[C@H]4[C@]3(C)CC[C@@H]12" is below 30 µg/mL in terms of CC100.
RESULT: false (0)
